From: patent US11439707B2

Test: absorption spectrum (maximum absorption wavelength, molar extinction coefficient)
Assay type: physicochemical
molar extinction coefficient listing for selected compounds.

>>> measured_result("COCCOCCOCCOCCOCCOCCOCCOCCOCCOCCOCCOCCOCCC(=O)OC1CCC(Nc2c3c4c5c(c(OC)c(=O)c6c(O)cc(OC)c(c7c(OC)cc(NC8CCC(OC(=O)CCOCCOCCOCCOCCOCCOCCOCCOCCOCCOCCOCCOCCOC)C8)c(c2=O)c74)c65)C(C(C)=O)C(C)=C3)C1 (centres unmarked) [HB-20c-PEG12]")
"32,500 M^−1cm^−1"
>>> measured_result("COc1c(NCCOCCO)c2c(=O)cc(OC)c3c4c(OC)cc(=O)c5c(O)c(NCCOCCO)c6c(c(c1C(C(C)=O)C(C)=C6)c23)c54 (centres unmarked)")
"28,000 M^−1cm^−1"
>>> measured_result("COCCOCCOCCOCCOCCOCCOCCOCCOCCOCCOCCOCCOCCC(=O)OCCNc1c2c3c4c(c(OC)c(=O)c5c(O)cc(OC)c(c6c(OC)cc(NCCOC(=O)CCOCCOCCOCCOCCOCCOCCOCCOCCOCCOCCOCCOCCOC)c(c1=O)c63)c54)CC(C)=C2")
"32,500 M^−1cm^−1"

Given the compound COc1c(O)c2c(=O)cc(OC)c3c4c(OC)cc(=O)c5c(NCCNCCOCCO)c(NCCNCCOCCO)c6c(c(c1C(C(C)=O)C(C)=C6)c23)c54 (centres unmarked) , write its reported molar extinction coefficient.
29,500 M^−1cm^−1

Given the compound COc1c2c3c4c(c(NC(CS)C(=O)O)c(=O)c5c(NC(CS)C(=O)O)cc(OC)c(c6c(OC)cc(O)c(c1=O)c63)c54)C=C(C)C2C(C)=O (centres unmarked) [HB-25c] , write its reported molar extinction coefficient.
21,500 M^−1cm^−1

====

molar extinction coefficient listing for selected molecules.
Assay: absorption spectrum (maximum absorption wavelength, molar extinction coefficient)
Assay type: physicochemical

Study these solved cases before continuing.
>>> measured_result("COCCOCCOCCOCCOCCOCCOCCOCCOCCNC(=O)C1CCC(CNc2c3c4c5c(c(OC)c(=O)c6c(O)cc(OC)c(c7c(OC)cc(NCC8CCC(C(=O)NCCOCCOCCOCCOCCOCCOCCOCCOCCOC)CC8)c(c2=O)c74)c65)C(C(C)=O)C(C)=C3)CC1 (centres unmarked) [HB-13c-NH-PEG8]")
"33,500 M^−1cm^−1"
>>> measured_result("COCCOCCOCCOCCOCCOCCOCCN1CCC(CNc2c(O)c3c(=O)cc(OC)c4c5c(OC)cc(=O)c6c(NCC7CCN(CCOCCOCCOCCOCCOCCOCCOC)CC7)c(OC)c7c(c(c2C=C(C)C7C(C)=O)c34)c65)CC1 (centres unmarked) [HB-32b-PEG6]")
"31,000 M^−1cm^−1"
>>> measured_result("COc1c(O)c2c(=O)cc(OC)c3c4c(OC)cc(=O)c5c(NCC6CCC(C(=O)O)CC6)c(NCC6CCC(C(=O)O)CC6)c6c(c(c1C(C(C)=O)C(C)=C6)c23)c54 (centres unmarked) [HB-13a]")
"28,500 M^−1cm^−1"
>>> measured_result("COc1c(O)c2c(=O)cc(OC)c3c4c(OC)cc(=O)c5c(NCCC(=O)O)c(NCCC(=O)O)c6c(c(c1C(C(C)=O)C(C)=C6)c23)c54 (centres unmarked) [HB-10a]")
"31,000 M^−1cm^−1"

Given the molecule COc1c2c3c4c(c(NCCNCCOCCO)c(=O)c5c(O)cc(OC)c(c6c(OC)cc(NCCNCCOCCO)c(c1=O)c63)c54)C=C(C)C2C(C)=O (centres unmarked) , write its reported molar extinction coefficient.
30,500 M^−1cm^−1
